molecular target: pim-1 kinase (Homo sapiens); assay: Measurement of pim-1 kinase inhibitory activity (fluorescent substrate peptide, capillary electrophoresis); type: biochemical; settings: 0.1 μM of each compound, 30 μM ATP, 1.5 μM substrate peptide, room temperature 2 hours; Table 2
Okay, here is how we bin by inhibition at 0.1 µM: LOW: < 80%; MID: ≥ 80% and < 90%; HIGH: ≥ 90%

Example cases with answers are listed next.
compound	class label
CN1CCN(Cc2c(O)ccc3c2O/C(=C\c2n[nH]c4ccccc24)C3=O)CC1 [Compound B4]	LOW
COc1ccc2c(c1CCCCC1CCNCC1)O/C(=C\c1n[nH]c3ccccc13)C2=O [Compound B63]	HIGH

stdin: Place this compound in its band: COc1ccc2c(c1/C=C\C1CCNCC1)O/C(=C\c1n[nH]c3ccccc13)C2=O [Compound B56]
stdout: HIGH

* * *

target: pim-1 kinase (Homo sapiens); experiment: Measurement of pim-1 kinase inhibitory activity (fluorescent substrate peptide, capillary electrophoresis); format: biochemical; settings: 0.1 μM of each compound, 30 μM ATP, 1.5 μM substrate peptide, room temperature 2 hours; Table 2
Hi there, I'd appreciate the recorded inhibition at 0.1 µM for every entry that follows.
Give bare numbers, in %.

compound	inhibition at 0.1 µM / %
COc1ccc2c(c1/C=C\CN1CCNCC1)O/C(=C\c1n[nH]c3ccccc13)C2=O [Compound B47]	84
CC(C)COc1ccc2c(c1CN1CCNCC1)O/C(=C\c1n[nH]c3ccccc13)C2=O [Compound B26]	78

Now for the compound whose inhibition at 0.1 µM we want.
stdin: Write down inhibition at 0.1 µM measured for item O=C1/C(=C/c2n[nH]c3ncccc23)Oc2c(CN3CCNCC3)cccc21 [Compound B70]
stdout: 94

* * *

Target: pim-1 kinase (Homo sapiens)
Test: Measurement of pim-1 kinase inhibitory activity (fluorescent substrate peptide, capillary electrophoresis)
Format: biochemical
Conditions: 0.1 μM of each compound, 30 μM ATP, 1.5 μM substrate peptide, room temperature 2 hours; Table 2
Protocol: Measurement of Pim-1 Kinase Inhibitory Activity The result of the reaction was determined by quantifying the substrate and the phosphorylated reaction product separated by capillary electrophoresis based on difference in charges of the substances (EZ Reader II, Caliper Life Sciences, was used).
value kind: inhibition at 0.1 µM (%)
Give bare numbers, in %.

Previously resolved entries follow.
compound	readout unit	inhibition at 0.1 µM
O=C1/C(=C/c2n[nH]c3ccccc23)Oc2c1ccc(OCC1CC1)c2CN1CCNCC1 [Compound B27]	%	91
O=C1/C(=C/c2n[nH]c3ccccc23)Oc2c1ccc(O)c2CN1CCNCC1 [Compound B1]	%	88
O=C1/C(=C/c2n[nH]c3ccccc23)Oc2c1cc(Cl)c(O)c2CN1CCNCC1 [Compound B13]	%	88
COc1ccc2c(c1CCC1CCNCC1)O/C(=C\c1n[nH]c3ncccc13)C2=O [Compound B72]	%	97
COc1ccc2c(c1C#CCCN1CCNCC1)O/C(=C\c1n[nH]c3ccccc13)C2=O [Compound B49]	%	63
COc1ccc2c(c1C(C)N1CCNCC1)O/C(=C\c1n[nH]c3ccccc13)C2=O (stereo not shown) [Compound B20]	%	95

Proceed to the following item.
stdin: Output inhibition at 0.1 µM of O=C1CN(Cc2c(O)ccc3c2O/C(=C\c2n[nH]c4ccccc24)C3=O)CCN1 [Compound B6]
stdout: 49

* * *

target: pim-1 kinase (Homo sapiens, UniProt P11309); test: Measurement of pim-1 kinase inhibitory activity (fluorescent substrate peptide, capillary electrophoresis); assay type: biochemical; details: 0.1 μM of each compound, 30 μM ATP, 1.5 μM substrate peptide, room temperature 2 hours; Table 1
Sequence (P11309 whole entry): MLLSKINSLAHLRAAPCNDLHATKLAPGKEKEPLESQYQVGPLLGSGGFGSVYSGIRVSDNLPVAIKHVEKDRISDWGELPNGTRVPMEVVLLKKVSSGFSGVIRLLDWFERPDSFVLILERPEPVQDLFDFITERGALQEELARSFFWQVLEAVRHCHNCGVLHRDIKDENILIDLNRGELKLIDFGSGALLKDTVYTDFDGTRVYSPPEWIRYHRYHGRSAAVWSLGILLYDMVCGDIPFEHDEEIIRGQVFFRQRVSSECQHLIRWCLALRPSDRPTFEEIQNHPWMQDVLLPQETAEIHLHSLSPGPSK
Counter-ions that a name gives are not always drawn.
value kind: inhibition at 0.1 µM (%)
Give bare numbers, in %.

Kindly give each listed record's inhibition at 0.1 µM.
1. O=C1/C(=C/c2cn(S(=O)(=O)c3ccccc3Cl)c3ccccc23)Oc2c1ccc(O)c2CN1CCNCC1 [Compound A36, dihydrochloride]
2. Cc1ccc2[nH]cc(/C=C3\Oc4c(ccc(O)c4CN4CCNCC4)C3=O)c2c1 [Compound A18, dihydrochloride]
3. O=C1/C(=C/c2c[nH]c3nc(-c4ccccc4)ccc23)Oc2c1ccc(O)c2CN1CCNCC1 [Compound A49, trihydrochloride]

stdout:
99
95
16

* * *

Exercise: state measured inhibition at 0.1 µM for each of the molecules provided.
target: UniProt P11309; test: Measurement of pim-1 kinase inhibitory activity (fluorescent substrate peptide, capillary electrophoresis); format: biochemical; settings: 0.1 μM of each compound, 30 μM ATP, 1.5 μM substrate peptide, room temperature 2 hours; Table 2
One number for each entry, in %.

Record inhibition at 0.1 µM for all entries; do not skip any.
1. O=C1/C(=C/c2n[nH]c3ccccc23)Oc2c1cc1c(c2CN2CCNCC2)OCO1
2. COc1c(F)cc2c(c1CCC1CCNCC1)O/C(=C\c1n[nH]c3ccccc13)C2=O
3. COc1ccc2c(c1C#CC1CCNCC1)O/C(=C\c1n[nH]c3ccccc13)C2=O
4. COc1ccc2c(c1C1=CCNCC1)O/C(=C\c1n[nH]c3ccccc13)C2=O
5. O=C1/C(=C/c2n[nH]c3ccc(F)cc23)Oc2c1ccc(O)c2CN1CCNCC1
6. O=C1/C(=C/c2n[nH]c3ccc(Cl)cc23)Oc2c1ccc(O)c2CN1CCNCC1

stdout:
1: 95; 2: 89; 3: 84; 4: 50; 5: 81; 6: 93

Please give inhibition at 0.1 µM for each item listed below.
1. COc1ccc2c(c1CCC1CCNCC1)O/C(=C\c1n[nH]c3ccccc13)C2=O
2. CC(C)Oc1ccc2c(c1CN1CCNCC1)O/C(=C\c1n[nH]c3ccccc13)C2=O
3. COc1ccc2c(c1C#CCN1CCNCC1)O/C(=C\c1n[nH]c3ccccc13)C2=O
4. COc1ccc2c(c1CN1CCNCC1)O/C(=C\c1n[nH]c3ccc(Cl)cc13)C2=O
5. COc1ccc2c(c1CN1CCNCC1)O/C(=C\c1n[nH]c3ccc(Br)cc13)C2=O
6. COc1ccc2c(c1/C=C\CCN1CCNCC1)O/C(=C\c1n[nH]c3ccccc13)C2=O
7. COc1ccc2c(c1CC1CCNCC1)O/C(=C\c1n[nH]c3ncccc13)C2=O

stdout:
89
97
86
95
100
82
95

Okay, here is my list. What is inhibition at 0.1 µM for each of these?
1. C[C@H]1CNCCN1Cc1c(O)ccc2c1O/C(=C\c1n[nH]c3ccccc13)C2=O
2. O=C1/C(=C/c2n[nH]c3ncccc23)Oc2c1ccc(O)c2CN1CCNCC1

stdout:
1: 79; 2: 93

* * *

target: pim-1 kinase (Homo sapiens); experiment: Measurement of pim-1 kinase inhibitory activity (fluorescent substrate peptide, capillary electrophoresis); format: biochemical; conditions: 0.1 μM of each compound, 30 μM ATP, 1.5 μM substrate peptide, room temperature 2 hours; Table 2
Kindly supply the reported inhibition at 0.1 µM values for the records listed here.
One number for each entry, in %.

Solved entries (count: 6):
compound	system tested	value kind	readout unit	number
O=C1/C(=C/c2n[nH]c3ccccc23)Oc2c1ccc(OCCO)c2CN1CCNCC1 [Compound B34]	pim-1 kinase (Homo sapiens)	inhibition at 0.1 µM	%	94
COc1ccc2c(c1CN1CCNCC1)O/C(=C\c1n[nH]c3ccccc13)C2=O [Compound B17]	pim-1 kinase (Homo sapiens)	inhibition at 0.1 µM	%	100
CCCCOc1ccc2c(c1CN1CCNCC1)O/C(=C\c1n[nH]c3ccccc13)C2=O [Compound B24]	pim-1 kinase (Homo sapiens)	inhibition at 0.1 µM	%	88
COc1ccc2c(c1C(=O)N1CCNCC1)O/C(=C\c1n[nH]c3ccccc13)C2=O [Compound B37]	pim-1 kinase (Homo sapiens)	inhibition at 0.1 µM	%	85
COc1ccc2c(c1CC1CCNCC1)O/C(=C\c1n[nH]c3ccccc13)C2=O [Compound B54]	pim-1 kinase (Homo sapiens)	inhibition at 0.1 µM	%	98
O=C1/C(=C/c2n[nH]c3ccccc23)Oc2c1ccc(OC1CCOCC1)c2CN1CCNCC1 [Compound B29]	pim-1 kinase (Homo sapiens)	inhibition at 0.1 µM	%	82

Below are some compounds; for each one, tell me its inhibition at 0.1 µM.
1. O=C1/C(=C/c2n[nH]c3ccccc23)Oc2c1ccc(O)c2CN1CCOCC1 [Compound B5]
2. O=C1/C(=C/c2n[nH]c3ccc(Br)cc23)Oc2c1cc(Cl)c(O)c2CN1CCNCC1 [Compound B16]
3. O=C1/C(=C/c2n[nH]c3ccc(OC(F)(F)F)cc23)Oc2c1ccc(O)c2CN1CCNCC1 [Compound B12]
4. O=C1/C(=C/c2n[nH]c3ccccc23)Oc2c1ccc(OCCc1ccccc1)c2CN1CCNCC1 [Compound B30]
5. CCOc1ccc2c(c1CN1CCNCC1)O/C(=C\c1n[nH]c3ccccc13)C2=O [Compound B22]
6. CN1CCN(Cc2cc(Cl)cc3c2O/C(=C\c2n[nH]c4ccccc24)C3=O)CC1 [Compound B40]
7. CC(c1c(O)ccc2c1O/C(=C\c1n[nH]c3ccccc13)C2=O)N1CCNCC1 (centres unmarked) [Compound B7]

stdout:
1. 22
2. 93
3. 90
4. 89
5. 96
6. 14
7. 86

stdin: Fill in inhibition at 0.1 µM for record COc1ccc2c(c1C#CC(C)(C)N1CCNCC1)O/C(=C\c1n[nH]c3ccccc13)C2=O [Compound B67]
stdout: 46
